Tested on: HeLa cells
assay: Resazurin cell viability assay, HeLa
Assay type: cell-based, human
study conditions: read-out: IC50 HeLa, 48 h
endpoint label: IC50 (µM)
Answers are plain numbers, in µM.

# input Give IC50 only, for N.N.[Cl][Pt][Cl] [Cisplatin] , using HeLa cells data.
# output 11.5
